These entries and their values trace back to the supplement of paper PMC4371806.

System: Escherichia coli BW25113
methodSummary: plate-normalized OD600 growth (mean of duplicates) (OD600 (normalized)); higher = more growth (less inhibition)
conditionLabel: temperature: 37°C; 24 h; 10 µM
Over roughly 1,600 compounds, “plate-normalized OD600 growth (mean of duplicates)” has its median near 0.31; the lowest 2% begin near 0.23. Only a selection was taken, and the lowest values are over-represented in it overall.
measurementLabel: plate-normalized OD600 growth
// print number alone

| compound | plate-normalized OD600 growth |
| --- | --- |
| CCCCOC(=O)Nc1nnc(CCc2ccccc2)s1 | 0.623 |
| c1ccc(CCCN2CCOCC2)cc1 | 0.615 |
| CC(c1ccccc1)N1CCC(=O)C2=C1CCCC2 (configuration not stated) | 0.604 |

plate-normalized OD600 growth reported for this compound O=C(Nc1cccc([N+](=O)[O-])c1)c1cc(S(=O)(=O)Nc2ccccc2)ccc1Cl : 0.621

GET /value?item= CCSC1=C(C#N)C(c2ccc(Cl)cc2Cl)CC(=O)N1 (configuration not stated) &field=plate-normalized OD600 growth returns 0.65

The measured plate-normalized OD600 growth associated with CC1(C)CC(n2c(NN)nc3c(c2=O)C2(CCCCC2)Cc2ccccc2-3)CCO1 (configuration not stated) reads 0.631

Entry c1ccc(CCN2CCN(c3ccccc3)CC2)cc1 — recorded plate-normalized OD600 growth = 0.62
